Origin of measurements: PubChem BioAssay (NCATS)

Test system: ECU
test_description: qHTS profiling for inhibitors of Plasmodium falciparum proliferation (AID 504749); further: nearly all actives have a fitted effect of over 60% in size
run_parameters: P. falciparum in erythrocytes, SYBR Green DNA, 72 h; series mostly up to 12.8 µM
Description: NIH National Institute of Allergy and Infectious Diseases [NIAID] NIH Chemical Genomics Center [NCGC] […] Because mature erythrocytes lack DNA, only Plasmodium-derived DNA is detected. NCGC Assay Protocol Summary: The SYBR Green viability assay was adapted from a method described previously (Plouffe et al., 2008). […] The following morning, fluorescence intensity at 485(14) nm excitation and 535(25) nm emission wavelengths was measured on an EnVision (Perkin Elmer) plate reader. […]
Records with an inconclusive call do not appear. Calls of active or inactive are those of the source. The call rests on the fitted dose curve; in most records, active means well fitted inhibition curve with a large enough effect; inconclusive means small, poorly fitted or top-dose-only effect; inactive means flat fitted curve, though single readings scatter.
Assign a class; possible classes are active, inactive

{"compound": "O=C1OC(CO)C(O)C(O)C1O (configuration not stated)", "assigned_label": "inactive"}
{"compound": "CC=C(/C(=C/C)c1ccc(O)cc1)c1ccc(O)cc1", "assigned_label": "inactive"}
{"compound": "C[C@@H]1Cc2ccccc2N1NC(=O)c1ccc(Cl)c(S(N)=O)c1 (some centres not stated)", "assigned_label": "inactive"}
{"compound": "COc1ccc(-c2cc(=O)c3c(O)cc(O[C@H]4OC(COC5OC(C)C(O)C(O)[C@H]5O)C(O)C(O)C4O)cc3o2)cc1O (some centres not stated)", "assigned_label": "inactive"}
{"compound": "CO[C@]1(NC(=O)C2SC(=C(C(N)=O)C(=O)O)S2)C(=O)N2C(C(=O)O)=C(CSc3nnnn3C)CS[C@H]21 (some centres not stated)", "assigned_label": "inactive"}
{"compound": "CC(C)(C)NC(=O)[C@@H]1CC[C@@H]2[C@@H]3CC[C@@H]4NC(=O)C=C[C@@]4(C)[C@H]3CC[C@]21C", "assigned_label": "inactive"}
{"compound": "CCCCC[C@H](O)/C=C\\[C@H]1[C@H](C/C=C\\CCCC(=O)O)[C@@H](O)C[C@H]1O (tested in a mixture with another compound)", "assigned_label": "inactive"}
{"compound": "CO[C@]12C(COC(N)=O)C3=C(C(=O)C(C)=C(N)C3=O)N1CC1NC12 (some centres not stated)", "assigned_label": "active"}
{"compound": "C[C@@H](C(=O)O)c1ccc(C(=O)c2ccccc2)s1", "assigned_label": "inactive"}
{"compound": "COc1ccc([C@@H]2CC(=O)c3c(O)cc(O[C@H]4O[C@@H](CO[C@H]5O[C@@H](C)[C@@H](O)[C@@H](O)[C@@H]5O)[C@@H](O)[C@@H](O)[C@@H]4O)cc3O2)cc1O", "assigned_label": "inactive"}

Ask: Please indicate how the test categorized Cc1ncc([N+](=O)[O-])n1C[C@H](O)CCl .
Reply: inactive

Ask: Field entry: CNC1C(OC2C(O[C@@H]3C(O)C(O)[C@@H](N=C(N)N)C(O)C3N=C(N)N)OC(C)[C@@]2(O)CO)OC(CO)C(O)C1O (some centres not stated)
Reply: inactive

Ask: Field entry: CC1(C)SC2C(N3C(=O)C(c4ccccc4)NC3(C)C)C(=O)N2C1C(=O)O (configuration not stated)
Reply: inactive

Ask: Field entry: CN[C@H]1[C@H](O)[C@@H](O[C@@H]2[C@H](O)[C@@H](O[C@H]3OC(CN)=CC[C@H]3N)[C@@H](N)C[C@H]2N)OC[C@@]1(C)O
Reply: inactive

Ask: Field entry: CC[C@@]12CCCN3CCc4c(n(c5ccccc45)[C@](O)(C(=O)OC)C1)C32 (some centres not stated)
Reply: inactive

Ask: Field entry: Clc1ccc(CC[C@H](Cn2ccnc2)Sc2c(Cl)cccc2Cl)cc1
Reply: active

Ask: Field entry: C[C@H](CCC(=O)O)[C@H]1CC[C@@H]2[C@@H]3[C@@H](O)C[C@H]4C[C@@H](O)CC[C@@]4(C)[C@H]3CC[C@@]21C
Reply: inactive
